B1: Azoarcus group I ribozyme (parent)
chain: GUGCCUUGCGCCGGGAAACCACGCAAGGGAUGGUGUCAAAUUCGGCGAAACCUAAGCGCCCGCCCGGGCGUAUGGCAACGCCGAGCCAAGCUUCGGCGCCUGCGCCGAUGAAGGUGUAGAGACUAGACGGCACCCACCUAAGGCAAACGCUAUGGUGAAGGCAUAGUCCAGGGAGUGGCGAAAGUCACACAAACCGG

Variants of: B1
measurement_description: reverse-splicing fitness (ratio to wild type); higher = more active; in vitro selection; Mg2+ level not given
Entries annotated with measured reverse-splicing fitness

variant_annotation | reverse-splicing fitness
C82A A120G A145U C169U U176G | 0.00329
C82U A120C C169A U176A | 0.0143
C82G A111C C150G C169U U176A | 0.00763
C82G A111G C169G U176G | 0.0047
A120C A145U C150A C169G U176G | 0.00376
C82U A120U A145G C150G C169A | 0.00721
C82U A120G A145U C150A C169A U176G | 0.00335
A111U A120U A145G C150U U176A | 0.18
C82U A120C A145U C150G C169U U176A | 0.00974
C82G C150G C169G U176A | 0.00727
A120G A145U C169A | 0.447
A111G A120U A145C C169A U176C | 0.0018
A111U A120C C150U C169G U176C | 0.0132
C82G A111C A120U C150A C169G U176A | 0.00466
C82A A111U A120U A145G C150G C169G U176C | 0.00639
A111G A120G A145U C150G C169G U176C | 0.00471
C82U A111U A120U A145U C150U C169G | 0.00343
A111C A145C C169A U176G | 0.007
C82A A120G A145G C150G C169U U176A | 0.0129
C82G A111G C150A C169G U176A | 0.0217
C82A A111G A120U A145C C150U U176G | 0.00292
A111U A120C A145C C150A U176A | 0.0267
C82A A111U A120U A145U C150U U176C | 0.00878
C82G A111G A120G C150U C169G | 0.0154
C82A C150G U176G | 0.0062
C82A A111C A145U C150G C169U U176A | 0.00845
A111G A145U C150G U176A | 0.17
C82G A111G A120U A145C C150G C169U U176A | 0.00286
C82U A111C A120C A145U C150U U176G | 0.00604
A111U A120G A145G C150A C169A U176C | 0.0255
C82A A111C A120G A145C C150G U176A | 0.00683
C82U A120G A145G C150A C169U U176C | 0.0166
A111C A120G A145C C150U C169G U176A | 0.0253
A111C A120G C169G | 0.22
C82G A111U A120U A145G U176C | 0.0173
C82G A145C C150G C169U U176G | 0.00486
C82G A111C A120G C150A C169A | 0.0116
C82G A111C A120U A145G C150G C169A U176A | 0.0121
